// merged dataset of pKi values, system = Epidermal growth factor receptor (Homo sapiens), multiple refs
Answers are plain numbers, as −log10 of the molar value.

Below are 4 molecules. Give each one its pKi.
1. Cc1cc2[nH]c3nc(N)nc(NCc4ccccc4)c3c2cc1O
2. CO[C@H]1CCN(c2nccc(Nc3cc4c(cn3)nc(C)n4C(C)C)n2)C[C@H]1F (racemic)
3. C[C@@H](Nc1nc(N)nc2[nH]c3ccc(O)cc3c12)c1ccccc1
4. CC(C)n1nc(N2CCOCC2)c2cnc(Nc3ccnc(-c4cnn(S(=O)(=O)C5CC5)c4)n3)cc21

Result:
1: 6.19; 2: 5.97; 3: 6.04; 4: 8.00

---

// merged dataset of pKi values, system = Epidermal growth factor receptor (Homo sapiens, UniProt P00533), multiple refs
Give bare numbers, as −log10 of the molar value.

smilestext=c1ccc(CNc2ccnc3oc4ccccc4c23)cc1 testresult=6.23
smilestext=Nc1nc(NCCc2ccccc2)c2c(n1)[nH]c1ccc(O)cc12 testresult=6.19
smilestext=Cc1ccc(CNc2nc(N)nc3[nH]c4ccc(O)cc4c23)cc1 testresult=7.05
smilestext=COc1ccc(CNc2nc(N)nc3[nH]c4ccc(O)cc4c23)cc1OC testresult=5.43
smilestext=Cn1nccc1-c1nc(Nc2n[nH]c3ccccc23)c2c(n1)C(C)(C)OC2 testresult=7.46

Here's the next entry for you.
Query "CC(C)n1nc(N2CC(C(C)(C)O)C2)c2cnc(Nc3ccnc(-c4cnn(S(=O)(=O)C5CC5)c4)n3)cc21" yields pKi of 8.15

---

// merged dataset of Ki values, system = UniProtKB P00533, multiple refs

Example entries and their recorded answers appear below.
compound=OCCCc1cn(-c2ccc3[nH]ncc3c2)nn1 testresult="> 1.8 µM"
compound="Cc1nc2cnc(Nc3ccnc(N4CC[C@H](O)C(F)(F)C4)n3)cc2n1C(C)C (racemic)" testresult="> 0.403 µM"
compound=O=C(Cc1ccccc1)Nc1cc(-c2nc3sccn3c2-c2ccnc(Nc3ccc(N4CCOCC4)cc3)n2)ccc1Cl testresult="> 10 µM"

Here's the next entry for you.
Query CC(C)C[C@H](NC(=O)[C@H](CCCNC(=N)N)NC(=O)[C@@H](N)CCCNC(=N)N)C(=O)N[C@@H](CCC(=O)O)C(=O)N[C@@H](CCC(=O)O)C(=O)N[C@@H](CCC(=O)O)C(=O)N[C@@H](CCC(=O)O)C(=O)N[C@@H](CCC(=O)O)C(=O)N[C@@H](C)C(=O)N[C@@H](Cc1c(F)c(F)c(O)c(F)c1F)C(=O)NCC(=O)O (stereo in doubt; 187L) yields Ki of 4 µM
